tested on: Human hepatocellular carcinoma cell line (HepG2); assay: MTT cytotoxicity assay, HepG2; format: cell-based; conditions: Homo sapiens, HepG2, 24 h, read-out: IC50 (μM) HePG2
metric.name: IC50 (µM)
Field: numeric (µM). Do not append units.

Solved entries:
- compound: "COc1cc(-c2csc(NC(=O)CN3CCN(C)CC3)n2)cc(OC)c1OC [Compound 6b]"
  assay.target: "Human hepatocellular carcinoma cell line (HepG2)"
  quantitative.readout: 74.6
- compound: "COc1cc(-c2csc(NC(=O)CNN)n2)cc(OC)c1OC [Compound 8]"
  assay.target: "Human hepatocellular carcinoma cell line (HepG2)"
  quantitative.readout: 3.35
- compound: "COc1cc(-c2csc(NC(=O)CN3CCNCC3)n2)cc(OC)c1OC [Compound 6a]"
  assay.target: "Human hepatocellular carcinoma cell line (HepG2)"
  quantitative.readout: 8.17
- compound: "COc1cc(-c2csc(NC(=O)CNc3ccc(Br)c(C(F)(F)F)c3)n2)cc(OC)c1OC [Compound 7d]"
  assay.target: "Human hepatocellular carcinoma cell line (HepG2)"
  quantitative.readout: 28.1
- compound: "COc1cc(-c2csc(NC(=O)CN3CCOCC3)n2)cc(OC)c1OC [Compound 6e]"
  assay.target: "Human hepatocellular carcinoma cell line (HepG2)"
  quantitative.readout: 19.8

Moving on to the next compound.
Exercise: Please give the measured IC50 for this compound: COc1cc(-c2csc(NC(=O)CCl)n2)cc(OC)c1OC [Compound 4]
Key: 62.6

---

test system: Human hepatocellular carcinoma cell line (HepG2); assay: MTT cytotoxicity assay, HepG2; assay type: cell-based; conditions: Homo sapiens, HepG2, 24 h, read-out: IC50 (μM) HePG2
Documented IC50 across a set of compounds
Field: numeric (µM). Do not append units.

Solved entries:
- compound: "COc1cc(-c2csc(NC(=O)CNc3ccccc3)n2)cc(OC)c1OC [Compound 7a]"
  IC50 (µM): 94.1
- compound: "COc1cc(-c2csc(NC(=O)CNCCO)n2)cc(OC)c1OC [Compound 5a]"
  IC50 (µM): 22
- compound: "COc1cc(-c2csc(NC(=O)CNC(C)C)n2)cc(OC)c1OC [Compound 5c]"
  IC50 (µM): 11.9
- compound: "CCN1CCN(CC(=O)Nc2nc(-c3cc(OC)c(OC)c(OC)c3)cs2)CC1 [Compound 6c]"
  IC50 (µM): 33.9
- compound: "COc1cc(-c2csc(NC(=O)CNc3ccc(N4CCOCC4)cc3)n2)cc(OC)c1OC [Compound 7e]"
  IC50 (µM): 25.7

Exercise: // fetch Human hepatocellular carcinoma cell line (HepG2) IC50 for CCCCNCC(=O)Nc1nc(-c2cc(OC)c(OC)c(OC)c2)cs1 [Compound 5b]
Key: 10.9

Exercise: // fetch Human hepatocellular carcinoma cell line (HepG2) IC50 for COc1cc(-c2csc(NC(=O)CN3CCN(c4ccc(F)cc4)CC3)n2)cc(OC)c1OC [Compound 6d]
Key: 4.03

Exercise: // fetch Human hepatocellular carcinoma cell line (HepG2) IC50 for COc1cc(-c2csc(NC(=O)NCCCl)n2)cc(OC)c1OC [Compound 11]
Key: 93

Exercise: // fetch Human hepatocellular carcinoma cell line (HepG2) IC50 for COc1cc(-c2csc(NC(=O)CNc3ccc([N+](=O)[O-])cc3)n2)cc(OC)c1OC [Compound 7c]
Key: 6.26

---

test system: Human colorectal carcinoma cell line (HCT-116); assay: MTT cytotoxicity assay, HCT-116; type: cell-based; conditions: Homo sapiens, HCT-116, 24 h, read-out: IC50 (μM) HCT-116
# strict inequality: IC50 < 10 µM yields yes (1), everything else yields no (0)

Would you please look over these solved cases?
- compound: "COc1cc(-c2csc(NC(=O)CNc3ccc(Br)cc3)n2)cc(OC)c1OC [Compound 7b]"
  group.label: "yes (1)"
- compound: "COc1cc(-c2csc(NC(=O)NCCNc3ccccc3)n2)cc(OC)c1OC [Compound 12]"
  group.label: "no (0)"
- compound: "COc1cc(-c2csc(NC(=O)CNCCO)n2)cc(OC)c1OC [Compound 5a]"
  group.label: "no (0)"
- compound: "COc1cc(-c2csc(NC(=O)CNc3ccc(N4CCOCC4)cc3)n2)cc(OC)c1OC [Compound 7e]"
  group.label: "no (0)"
- compound: "COc1cc(-c2csc(NC(=O)NCCCl)n2)cc(OC)c1OC [Compound 11]"
  group.label: "no (0)"
- compound: "COc1cc(-c2csc(NC(=O)CNN)n2)cc(OC)c1OC [Compound 8]"
  group.label: "yes (1)"
- compound: "COc1cc(-c2csc(NC(=O)CCl)n2)cc(OC)c1OC [Compound 4]"
  group.label: "no (0)"

Exercise: Input COc1cc(-c2csc(NC(=O)CNc3ccc([N+](=O)[O-])cc3)n2)cc(OC)c1OC [Compound 7c] ; condition: IC50 strictly below 10 µM. Does it hold?
Key: yes (1)

---

Documented IC50 across a set of compounds
tested on: Human colorectal carcinoma cell line (HCT-116); test: MTT cytotoxicity assay, HCT-116; format: cell-based; conditions: Homo sapiens, HCT-116, 24 h, read-out: IC50 (μM) HCT-116
Field: numeric (µM). Do not append units.

Solved entries:
- compound: "COc1cc(-c2csc(NC(=O)NCCN3CCOCC3)n2)cc(OC)c1OC [Compound 13b]"
  quantitative.readout: 27.4
- compound: "COc1ccc(/C=C\\c2cc(OC)c(OC)c(OC)c2)cc1O [CA-4, combretastatin A-4, reference compound]"
  quantitative.readout: 5.23

Exercise: // fetch Human colorectal carcinoma cell line (HCT-116) IC50 for COc1cc(-c2csc(NC(=O)CN3CCNCC3)n2)cc(OC)c1OC
Key: 28.9

Exercise: // fetch Human colorectal carcinoma cell line (HCT-116) IC50 for COc1cc(-c2csc(NC(=O)CN3CCN(c4ccc(F)cc4)CC3)n2)cc(OC)c1OC
Key: 15.7

Exercise: // fetch Human colorectal carcinoma cell line (HCT-116) IC50 for COc1cc(-c2csc(NC(=O)CN3CCN(C)CC3)n2)cc(OC)c1OC
Key: 83.7

---

Documented IC50 across a set of compounds
test system: Human colorectal carcinoma cell line (HCT-116); test: MTT cytotoxicity assay, HCT-116; assay type: cell-based; conditions: Homo sapiens, HCT-116, 24 h, read-out: IC50 (μM) HCT-116
Field: numeric (µM). Do not append units.

Solved entries:
- compound: "COc1cc(-c2csc(NC(=O)CNc3ccccc3)n2)cc(OC)c1OC"
  assay.target: "Human colorectal carcinoma cell line (HCT-116)"
  IC50 / µM: 52.5
- compound: "COc1cc(-c2csc(NC(=O)CNC(C)C)n2)cc(OC)c1OC"
  assay.target: "Human colorectal carcinoma cell line (HCT-116)"
  IC50 / µM: 12.9
- compound: "COc1cc(-c2csc(NC(=O)CNc3ccc(Br)c(C(F)(F)F)c3)n2)cc(OC)c1OC"
  assay.target: "Human colorectal carcinoma cell line (HCT-116)"
  IC50 / µM: 33.1
- compound: "CCN1CCN(CC(=O)Nc2nc(-c3cc(OC)c(OC)c(OC)c3)cs2)CC1"
  assay.target: "Human colorectal carcinoma cell line (HCT-116)"
  IC50 / µM: 37.2
- compound: "COc1cc(-c2csc(NC(=O)CN/N=C3\\C(=O)Nc4ccc(C)cc43)n2)cc(OC)c1OC"
  assay.target: "Human colorectal carcinoma cell line (HCT-116)"
  IC50 / µM: 9.93
- compound: "COc1cc(-c2csc(NC(=O)CN3CCOCC3)n2)cc(OC)c1OC"
  assay.target: "Human colorectal carcinoma cell line (HCT-116)"
  IC50 / µM: 18
- compound: "CCCCNCC(=O)Nc1nc(-c2cc(OC)c(OC)c(OC)c2)cs1"
  assay.target: "Human colorectal carcinoma cell line (HCT-116)"
  IC50 / µM: 24.4
- compound: "COc1cc(-c2csc(Nc3csc(N)n3)n2)cc(OC)c1OC"
  assay.target: "Human colorectal carcinoma cell line (HCT-116)"
  IC50 / µM: 55.3

Moving on to the next compound.
Exercise: Please give the measured IC50 for this compound: CCN1CCN(CCNC(=O)Nc2nc(-c3cc(OC)c(OC)c(OC)c3)cs2)CC1 [Compound 13a]
Key: 20.1

---

tested on: HepG2, HCT-116, MCF-7, and HeLa cell lines; experiment: MTT cytotoxicity assay, statements over the four tested cell lines; assay type: cell-based, human; settings: all tested cell lines
metric.name: cytotoxic effect, class in words, tested cell lines

- compound: "COc1cc(-c2csc(NC(=O)NCCCl)n2)cc(OC)c1OC"
  assay.target: "HepG2, HCT-116, MCF-7, and HeLa cell lines"
  result: "weak (51–100 (weak))"
- compound: "COc1cc(-c2csc(NC(=O)CCl)n2)cc(OC)c1OC"
  assay.target: "HepG2, HCT-116, MCF-7, and HeLa cell lines"
  result: "weak (51–100 (weak))"
